System: SK-MEL-2
Protocol: NCI tumour cell line growth inhibition, 48 h
Activity calls are given as the source filed them. No stated cut-off is given here; in the data, active = GI50 up to about 1.1 µM and inactive = higher.
Classes used: active, inactive

Molecule	Test target	Label
CCCN/C(N)=N/C#N	SK-MEL-2	inactive
CC(C)(C)OC(=O)NC12C3C4C1C1C2C3C41NC(=O)OC(C)(C)C (configuration not stated)	SK-MEL-2	inactive
COc1c2cc([N+](=O)[O-])cc1CN(C(=O)C(F)(F)F)CCOCCN(C(=O)C(F)(F)F)C2	SK-MEL-2	inactive
CCOC(=O)C(C(=O)OCC)=C1N[C@H](C(=O)OCC)CS1	SK-MEL-2	inactive
C(=N\N=C1NCCCN1)/c1ccc2ccccc2c1	SK-MEL-2	inactive
CC1=C(c2cc(C(=O)Nc3nccs3)nc(NC#N)n2)Sc2ccccc2N1	SK-MEL-2	inactive
COC(=O)CC(CC(=O)C(=O)OC)C(=O)OC (configuration not stated)	SK-MEL-2	inactive
COc1ccccc1C1(c2c(OC)c(=O)c2=O)SCCCS1	SK-MEL-2	inactive
COC(=O)[C@@H]1O[C@]12[C@@H](CO[Si](C)(C)C(C)(C)C)O[C@@H](n1cc(C)c(=O)[nH]c1=O)[C@@H]2O[Si](C)(C)C(C)(C)C	SK-MEL-2	inactive
CC(=O)OCC(OC(C)=O)C1C[C@H]2O[C@@H]3[C@H](C[C@H]2O1)O[C@@]1(C[C@@H]3C)C[C@H](C)[C@@H]2O[C@]3(C[C@@H]2O1)C[C@H]1O[C@H]2[C@H](C)[C@H]4OC(=O)CC5CC[C@H]6OC7[C@H]8O[C@]9(CC[C@H]%10CC(O)(CO)[C@H](CC[C@H]%11C[C@@H](C)C(O)(CO)C(C[C@@H]4O[C@H]2C[C@H]1O3)O%11)O%10)CC8O[C@@H]7[C@@H](O9)[C@H]6O5 (some centres not stated)	SK-MEL-2	active
C[N+](C)(C)CC(=O)N/N=C(/Cc1cc(=O)oc2cc(O)ccc12)C(=O)Nc1ccc(Cl)cc1	SK-MEL-2	inactive
Cc1nc(C(N)=S)sc1C(=O)CC(=O)C(=O)Nc1ccccc1[N+](=O)[O-]	SK-MEL-2	inactive

====

System: SK-MEL-5
Protocol: NCI tumour cell line growth inhibition, 48 h
Calls of active or inactive are those of the source. No stated cut-off is given here; in the data, active = GI50 up to about 1.1 µM and inactive = higher.
Classes used: active, inactive

Compound	Label
CC(C)N(C(=O)C12C3C4C1C1C2C3C41C(O)C(C)(C)C)C(C)C (configuration not stated)	inactive
C=CCCC(=O)C(=[N+]=[N-])C(=O)CCC(=O)c1ccccc1	inactive
Nc1cc(N2CCOCC2)nc(=O)n1-c1ccc(Cl)cc1	inactive
CC(=O)OCC(OC(C)=O)C1C[C@H]2O[C@@H]3[C@H](C[C@H]2O1)O[C@@]1(C[C@@H]3C)C[C@H](C)[C@@H]2O[C@]3(C[C@@H]2O1)C[C@H]1O[C@H]2[C@H](C)[C@H]4OC(=O)CC5CC[C@H]6OC7[C@H]8O[C@]9(CC[C@H]%10CC(O)(CO)[C@H](CC[C@H]%11C[C@@H](C)C(O)(CO)C(C[C@@H]4O[C@H]2C[C@H]1O3)O%11)O%10)CC8O[C@@H]7[C@@H](O9)[C@H]6O5 (some centres not stated)	active
CCOC(=O)c1nc2cc(C(F)(F)F)ccc2nc1Nc1ccc(Cl)c(Cl)c1	inactive
C=C1c2ccccc2Oc2nc3nc(N)c(C#N)c(N)c3c(N)c21	inactive
CCCCCCCC(=O)N1C2CC3CCC2(CS1(=O)=O)C3(C)C (configuration not stated)	inactive
CC(C)=CCN1CC(C)C(=O)Nc2ccccc21 (configuration not stated)	inactive
CC(=O)OCC1OC(N2C(=O)NC(=O)C3C=C4CCCCC4=CC32)C(OC(C)=O)C1OC(C)=O (configuration not stated)	inactive
C=C1C(=O)O[C@@H]2C(=O)[C@@H](C)CCC/C(C)=C/CC[C@@]3(C)O[C@@H]3C[C@@H]12	inactive
COC(=O)c1cc2c(cc1CC(Cc1ccc3c(c1)CCC3)C(=O)OC)CCC2 (configuration not stated)	inactive
COC(=O)[C@@H]1O[C@]12[C@@H](CO[Si](C)(C)C(C)(C)C)O[C@@H](n1cc(C)c(=O)[nH]c1=O)[C@@H]2O[Si](C)(C)C(C)(C)C	inactive
Cc1cccc(C(C)C)c1N1C(=O)C(=O)C(c2nc3ccccc3o2)C(=O)C1=O	inactive
Cc1ccc(/C=C/c2n[nH]c(N/N=C/c3ccc4c(c3)OCO4)nc2=O)cc1	inactive
COC(=O)N/N=C(/CC1(O)C(=O)Nc2ccc([N+](=O)[O-])cc21)c1ccccc1 (configuration not stated)	inactive
O=C(/C=C/c1ccccc1)CSc1nc2ccc(I)cc2c(=O)n1Cc1ccccc1	inactive
C=C=C[P+](c1ccccc1)(c1ccccc1)c1ccccc1	inactive

====

Hi! I'm sharing some GI50 results obtained with HCT-15.
Quantity kind: GI50 (µM)

Compound	Test target	Endpoint unit	Sign qualifier	Quantitative result
CC(C)=CCC[C@](C)(O[C@@H]1O[C@H](CO)[C@@H](O)[C@H](O)[C@H]1O)[C@H]1CC[C@]2(C)[C@@H]1[C@H](O)C[C@@H]1[C@@]3(C)CC[C@H](O)C(C)(C)[C@@H]3[C@@H](O[C@@H]3O[C@H](CO)[C@@H](O)[C@H](O)[C@H]3O)C[C@]12C [GINSENOSIDE RG1]	HCT-15	µM	>	100
COC1C(O)=C2C(=O)O/C(C)=C/C=C/C=C/C=C\CC(c3ccccc3)NC(=O)\C=C/C=C\C=C\C=C\[C@@]2(C)[C@@H]1O (stereo partly drawn)	HCT-15	µM	<	0.01
O=C(NC(=O)c1ccccc1[N+](=O)[O-])Nc1ccc(Oc2ncc(Br)cn2)c(Cl)c1	HCT-15	µM	=	0.0441
COC(=O)C(=O)C1(CCC(C)=O)c2ccccc2-c2c(C)ccc(C)c21 (stereo not drawn)	HCT-15	µM	=	32.6
O=C1/C(=N\NC(=S)Nc2ccc(Cl)cc2)c2cc([N+](=O)[O-])ccc2N1CN1CCOCC1	HCT-15	µM	=	3.36
CN(C)c1ccc(C(=C2C=CC(=[N+](C)C)C=C2)c2c(O)c(S(=O)(=O)[O-])cc3cc(S(=O)(=O)O)ccc23)cc1	HCT-15	µM	>	100
Cn1c(=O)c2c3oc(=O)cc(O)c3c(=O)n3c4ccccc4n(c1=O)c23	HCT-15	µM	=	27.8
Cc1nc(C(N)=S)sc1C(=O)CC(=O)C(=O)Nc1ccccc1[N+](=O)[O-]	HCT-15	µM	>	100

====

Reported GI50 values are given for each entry in this list.
Tested on: SNB-19
Protocol: NCI tumour cell line growth inhibition, 48 h
Calls of active or inactive are those of the source. Rule as the data show it: active = GI50 up to about 1.1 µM and inactive = higher.
Quantity kind: GI50

>>> print(df.to_string())
                                   compound  test_target               result
0  CC(=O)OCC1OC(n2c(C)c(/N=N/c3ccccc3)c(C)c(C#N)c2=S)C(OC(C)=O)C(OC(C)=O)C1OC(C)=O (stereo not given)       SNB-19   24.2 µM (inactive)
1  CC(C)(C)c1cc(C(=O)O)c(C(c2ccccc2)c2ccccc2C(=O)O)c(C(=O)O)c1 (stereo not given)       SNB-19  > 100 µM (inactive)
2  CC1C(C)(C)C23CC12C1(OCCO1)C3Br (stereo not given)       SNB-19  > 100 µM (inactive)
3  COC(=O)c1ccc(C)cc1CC1Cc2c(C)cccc2C1=O (stereo not given)       SNB-19   9.89 µM (inactive)
4  O=[N+]([O-])C1C2C=CC(C2)[C@H]1c1ccccc1Cl (stereo not given in full)       SNB-19  > 100 µM (inactive)
5  CC(=O)O[C@H]1CC[C@@]2(C)C(=CC[C@@H]3[C@@H]2CC[C@](C)(c2nnc(C)o2)[C@H]3CC#N)C1       SNB-19  > 100 µM (inactive)
6  CC(=O)c1ccc(NC(=O)COC(=O)c2cccc3c(=O)c4ccccc4[nH]c23)cc1       SNB-19   22.5 µM (inactive)
7           O=C(O)c1ccc(Cc2ccccc2C(=O)O)cc1       SNB-19  > 100 µM (inactive)
8  CC(NC(=O)C(C)NC(=O)C(N)CCP(C)(=O)O)C(=O)O (stereo not given)       SNB-19  > 100 µM (inactive)
9  COC(=O)CCC(NC(=S)N/N=C/c1ccccn1)C(=O)OC (stereo not given)       SNB-19  > 100 µM (inactive)

====

Test system: BT-549
Protocol: NCI tumour cell line growth inhibition, 48 h
The source made the active and inactive calls. Cut-off read from the data, not from the text of the source: active = GI50 up to about 1.1 µM and inactive = higher.
Classes used: active, inactive

Compound	Label
Cc1ccc([N+](=O)[O-])cc1S(=O)(=O)Nc1ccc(C2=NN(S(=O)(=O)c3cc([N+](=O)[O-])ccc3C)C(c3ccco3)C2)cc1 (stereo unspecified)	inactive
COc1ccc(N2C(=O)CC(C3CC(C(C)(C)C)CCC3=O)C2=O)cc1 (stereo unspecified)	inactive
O=C1CC(=O)c2c(O)cc(O)c(c2O)-c2c(ccc(O)c2O)C2=CC(=O)c3c(O)cc(O)c(c3O2)-c2c1ccc(O)c2O.O=C1CC2(O)Oc3c1c(O)cc(O)c3-c1c(ccc(O)c1O)-c1cc(=O)c3c(O)cc(O)c(c3o1)-c1c2ccc(O)c1O	inactive
CC(=O)OCC(OC(C)=O)C1C[C@H]2O[C@@H]3[C@H](C[C@H]2O1)O[C@@]1(C[C@@H]3C)C[C@H](C)[C@@H]2O[C@]3(C[C@@H]2O1)C[C@H]1O[C@H]2[C@H](C)[C@H]4OC(=O)CC5CC[C@H]6OC7[C@H]8O[C@]9(CC[C@H]%10CC(O)(CO)[C@H](CC[C@H]%11C[C@@H](C)C(O)(CO)C(C[C@@H]4O[C@H]2C[C@H]1O3)O%11)O%10)CC8O[C@@H]7[C@@H](O9)[C@H]6O5 (stereo partly specified)	active
CN1CC[C@]2(c3cccc(O)c3)CC(=O)/C(=C/c3ccc(Cl)c(Cl)c3)[C@@H]1C2	inactive
CO/N=C(\C(=O)[N-]n1cn[n+](CC(=O)OC(C)(C)C)c1)c1csc(NC(c2ccccc2)(c2ccccc2)c2ccccc2)n1	inactive
FC(F)(Sc1ccccc1)c1nc2ccccc2o1	inactive
COc1ccc(/C=C(/c2ccc(OC)cc2)c2c(Cl)cc(Cl)c(/C(=C\c3ccc(OC)cc3)c3ccc(OC)cc3)c2/N=N/c2ccccc2)cc1	inactive
CN(C)c1ccc(C(=C2C=CC(=[N+](C)C)C=C2)c2c(O)c(S(=O)(=O)[O-])cc3cc(S(=O)(=O)O)ccc23)cc1	inactive
Cc1cc(C)c(S(=O)(=O)N(CCCCN)OCCCN)c(C)c1	inactive
CC(C)=CCN1CC(C)C(=O)Nc2ccccc21 (stereo unspecified)	inactive
CC(C)COC(c1ccc2c(c1)OCO2)C(C)Br (stereo unspecified)	inactive
CNC(=S)N/N=C(\C)c1ccc(OC)cc1O	inactive
O=[N+]([O-])c1ccc(-c2nc3cc([N+](=O)[O-])ccc3[nH]2)cc1	inactive
C/C(=N\Nc1nc2ccccc2[nH]1)c1cccc[n+]1[O-]	inactive
Sc1nnc(SCc2ccccc2Cl)c2nc[nH]c12	inactive
COC(=O)N/N=C(/CC1(O)C(=O)Nc2ccc([N+](=O)[O-])cc21)c1ccccc1 (stereo unspecified)	inactive
COC(=O)Nc1nc2cc(S(=O)(=O)N3CCOCC3)ccc2[nH]1	inactive
NC1(c2cc3ccccc3s2)CCCCCC1	inactive
Cc1ccc(/C=C/c2n[nH]c(N/N=C/c3ccc4c(c3)OCO4)nc2=O)cc1	inactive
CCC(=O)OCOc1ccc(/C=C2\CCC(CN(C)C)C2=O)cc1 (stereo unspecified)	inactive
Cc1ccc2nc(N/N=C/c3cccc(C)n3)cc(C)c2c1	inactive
Cn1c(=O)cc(Nc2ccc(N)cc2)[nH]c1=O	inactive
Nc1cc2c3c(cccc3c1)C(=O)N(c1ccc(OCCN3CCCC3)cc1)C2=O	inactive
COCP1(=S)OC(C)CCN1C(C)C (stereo unspecified)	inactive
C[Si](C)(C)C#Cc1cc(-c2nc3ccccc3s2)ccc1N	inactive
C[N+]1(C)C2CC(OC(=O)C(CO)c3ccccc3)CC1C1OC12 (stereo unspecified)	inactive
O=S(=O)(c1ccccc1)[C@H]1[C@@H]2O[C@@H]2C[C@@H]1O	inactive
Oc1ccc(-c2cc(-c3c(O)cc(O)cc3O)on2)cc1	inactive
COc1ccccc1Cc1ccc(C2C=CC3(CC(=O)C=C3C)C(=O)C2)o1 (stereo unspecified)	inactive
COC(=O)c1cc2c(cc1CC(Cc1ccc3c(c1)CCC3)C(=O)OC)CCC2 (stereo unspecified)	inactive
CCc1c(N=[N+]=[N-])c2ccccc2oc1=O	inactive
Cn1c(-c2ccc[se]2)ccc1-c1ccc(CO)[se]1	inactive
Cc1ccc(N2C=Nn3c(nc4sc5c(c4c3=O)CCCC5)C2)cc1	inactive
CC(C)N(CC(=O)O)CC(=O)O	inactive
Clc1sc(Cl)c2c1[C@@H](Cl)C[C@@H]2Br	inactive
C1=N\CCNCC/N=C\c2ccc(cc2)OCc2cccc(n2)COc2ccc/1cc2	inactive
O=C(NC(=O)c1ccccc1[N+](=O)[O-])Nc1ccc(Oc2ncc(Br)cn2)c(Cl)c1	active
C=C1CC[C@@H]2[C@](C)(COC(=O)CCC(=O)OC)CCC[C@@]2(C)[C@@H]1CCC1=CC(=O)OC1	inactive
c1ccc(CSc2ccccc2CN2CCN(Cc3ccccc3SCc3ccccc3)CCN(Cc3ccccc3SCc3ccccc3)CC2)cc1	inactive
CCOC(OCC)N1C(=O)C2(C(OCC)OCC)CC3C(OC(=O)N3N)c3cccc1c32 (stereo unspecified)	inactive
